Values from patent US20120039802A1

target: T1, cMet-Fc fusion protein (extracellular domain of the cMet receptor expressed as an Fc-fusion protein) (human, UniProt P08581 25-932); test: fluorescence polarization, 20 nM fluorescein peptide, cMet-Fc varied
T1 construct: extracellular domain; also called soluble cMet-Fc-fusion protein; soluble cMet receptor; not shown: Fc part
T1 sequence (P08581 25-932): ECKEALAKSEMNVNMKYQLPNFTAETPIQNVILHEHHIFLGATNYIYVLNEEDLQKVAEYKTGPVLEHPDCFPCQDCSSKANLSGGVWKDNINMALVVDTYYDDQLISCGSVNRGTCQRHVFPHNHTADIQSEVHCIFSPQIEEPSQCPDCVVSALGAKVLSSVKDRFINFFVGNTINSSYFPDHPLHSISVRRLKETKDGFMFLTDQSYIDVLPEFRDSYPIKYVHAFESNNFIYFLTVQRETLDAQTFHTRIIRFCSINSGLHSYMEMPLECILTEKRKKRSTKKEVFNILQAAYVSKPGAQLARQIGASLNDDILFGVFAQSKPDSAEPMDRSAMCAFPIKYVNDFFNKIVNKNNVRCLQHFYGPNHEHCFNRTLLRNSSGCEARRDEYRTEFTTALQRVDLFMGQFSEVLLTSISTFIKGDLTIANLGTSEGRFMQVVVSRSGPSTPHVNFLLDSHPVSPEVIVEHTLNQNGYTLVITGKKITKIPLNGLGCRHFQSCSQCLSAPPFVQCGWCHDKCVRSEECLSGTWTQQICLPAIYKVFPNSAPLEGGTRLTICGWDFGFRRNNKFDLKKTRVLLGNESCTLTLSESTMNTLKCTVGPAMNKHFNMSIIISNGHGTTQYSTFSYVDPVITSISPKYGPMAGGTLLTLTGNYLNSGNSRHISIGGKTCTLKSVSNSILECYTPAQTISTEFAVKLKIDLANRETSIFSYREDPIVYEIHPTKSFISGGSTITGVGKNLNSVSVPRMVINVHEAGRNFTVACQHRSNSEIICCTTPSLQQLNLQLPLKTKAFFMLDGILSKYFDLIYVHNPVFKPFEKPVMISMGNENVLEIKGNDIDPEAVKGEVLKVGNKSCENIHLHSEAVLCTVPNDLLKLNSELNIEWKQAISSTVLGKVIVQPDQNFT
pKd: −log10 of the molar value. fluorescein = fluorescein label on the side chain of the C-terminal Lys
Quick list: pKd per entry.
RECORDED_METRIC: pKd

[
  {
    "BINDER": "Ac-AGWFQCKGPPSFECERHGTGGGK(fluorescein)-NH2 (cysteine pairing not given here) [336-G04 synthetic fluorescein-labeled peptide (SEQ ID NO: 051)]",
    "QUAL": "=",
    "REPORTED_VALUE": 5.49
  },
  {
    "BINDER": "Ac-AQVGTAEAIMFSDVEDTGVHKFGGGK(fluorescein)-NH2 [103-G08 synthetic fluorescein-labeled peptide (SEQ ID NO: 459)]",
    "QUAL": "<",
    "REPORTED_VALUE": 5.70
  },
  {
    "BINDER": "Ac-AQIQGIQKTEQGEFYWFNWFPAGGGK(fluorescein)-NH2 [528-F05 synthetic fluorescein-labeled peptide (SEQ ID NO: 450)]",
    "QUAL": "=",
    "REPORTED_VALUE": 5.57
  },
  {
    "BINDER": "Ac-AQPYYELQDADMLLVVALLSTGGGGK(fluorescein)-NH2 [94-F07 synthetic fluorescein-labeled peptide (SEQ ID NO: 458)]",
    "QUAL": "=",
    "REPORTED_VALUE": 5.43
  },
  {
    "BINDER": "Ac-GDYSECFFEPDSFEVKCYDRDPGGGK(fluorescein)-NH2 (cysteine pairing not given here) [545-H12 synthetic fluorescein-labeled peptide (SEQ ID NO: 399)]",
    "QUAL": "=",
    "REPORTED_VALUE": 5.94
  },
  {
    "BINDER": "Ac-AGHWICVGPPTFSCQWHGTGGGK(fluorescein)-NH2 (cysteine pairing not given here) [330-G09 synthetic fluorescein-labeled peptide (SEQ ID NO: 071)]",
    "QUAL": "=",
    "REPORTED_VALUE": 5.73
  },
  {
    "BINDER": "Ac-AQEWEREYFVDGFWGSWFGIPHGGGK(fluorescein)-NH2 [130-E10 synthetic fluorescein-labeled peptide (SEQ ID NO: 472)]",
    "QUAL": "=",
    "REPORTED_VALUE": 5.59
  },
  {
    "BINDER": "Ac-GDDFHCEFIDDYQSEICYFNDPGGGK(fluorescein)-NH2 (cysteine pairing not given here) [333-C03 synthetic fluorescein-labeled peptide (SEQ ID NO: 391)]",
    "QUAL": "=",
    "REPORTED_VALUE": 5.74
  },
  {
    "BINDER": "Ac-AGWTHCIGPPTFECIPMGTGGGK(fluorescein)-NH2 (cysteine pairing not given here) [334-G06 synthetic fluorescein-labeled peptide (SEQ ID NO: 052)]",
    "QUAL": "=",
    "REPORTED_VALUE": 5.57
  }
]
